tgt: TNKS2 (Homo sapiens)
Sequence (Q9H2K2 whole entry): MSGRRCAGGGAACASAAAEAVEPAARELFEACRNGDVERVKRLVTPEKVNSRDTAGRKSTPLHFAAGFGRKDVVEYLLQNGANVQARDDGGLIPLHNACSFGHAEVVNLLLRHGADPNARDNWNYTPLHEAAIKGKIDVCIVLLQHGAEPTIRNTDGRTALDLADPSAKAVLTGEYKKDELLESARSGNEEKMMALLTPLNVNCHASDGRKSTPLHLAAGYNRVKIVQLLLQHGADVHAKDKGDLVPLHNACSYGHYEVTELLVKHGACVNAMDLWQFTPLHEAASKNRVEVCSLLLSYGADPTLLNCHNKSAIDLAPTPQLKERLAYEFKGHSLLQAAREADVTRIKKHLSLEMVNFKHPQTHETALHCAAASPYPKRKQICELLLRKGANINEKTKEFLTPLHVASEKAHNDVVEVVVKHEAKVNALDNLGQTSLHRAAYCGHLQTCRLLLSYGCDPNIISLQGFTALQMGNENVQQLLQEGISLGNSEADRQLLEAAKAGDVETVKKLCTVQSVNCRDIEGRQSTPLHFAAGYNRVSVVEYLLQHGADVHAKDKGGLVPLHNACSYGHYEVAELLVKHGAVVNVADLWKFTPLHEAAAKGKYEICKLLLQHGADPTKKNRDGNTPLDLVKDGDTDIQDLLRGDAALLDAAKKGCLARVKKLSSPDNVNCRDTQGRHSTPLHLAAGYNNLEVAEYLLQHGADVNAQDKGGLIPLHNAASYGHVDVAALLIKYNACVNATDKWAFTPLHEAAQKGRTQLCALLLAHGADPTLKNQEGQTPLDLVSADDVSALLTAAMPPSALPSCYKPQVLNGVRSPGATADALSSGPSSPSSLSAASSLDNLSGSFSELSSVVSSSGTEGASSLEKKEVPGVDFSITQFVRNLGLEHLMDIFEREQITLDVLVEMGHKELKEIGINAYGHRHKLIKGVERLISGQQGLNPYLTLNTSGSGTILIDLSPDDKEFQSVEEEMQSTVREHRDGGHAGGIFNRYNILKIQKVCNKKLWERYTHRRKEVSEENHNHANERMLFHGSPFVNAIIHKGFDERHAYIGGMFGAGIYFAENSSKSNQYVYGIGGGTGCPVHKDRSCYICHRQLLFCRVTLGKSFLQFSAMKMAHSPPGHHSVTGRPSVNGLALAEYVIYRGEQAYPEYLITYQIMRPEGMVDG
experiment: TNKS2 Assay 1 (TNKS2 Histone Ribosylation Assay Kit, biotin-labeled NAD+)
Type: biochemical
measurement-conditions: chemiluminescent readout, 384 well, first table
Reported log10(IC50) values for a set of compounds
On a log10 scale: recorded IC50, unit nM.

compound | tgt | measurement-label | number
CNC(=O)c1nc[nH]c1C(=O)Nc1ccc(NC(=O)c2ccc(N(C)C)cc2Cl)cc1 | TNKS2 (Homo sapiens) | log10(IC50) | 1.95
CNC(=O)c1nc[nH]c1C(=O)Nc1ccc(NC(=O)c2ccc(F)cc2Cl)nc1 | TNKS2 (Homo sapiens) | log10(IC50) | 1.60
CN(C)C(=O)c1nc[nH]c1C(=O)Nc1ccc(NC(=O)c2ccc(F)cc2Cl)cc1 | TNKS2 (Homo sapiens) | log10(IC50) | 2.70
CNC(=O)c1nc[nH]c1C(=O)Nc1ccc(NC(=O)c2ccc(F)cc2Cl)c(C)c1 | TNKS2 (Homo sapiens) | log10(IC50) | 2.67
CCC(C)NC(=O)c1ncoc1C(=O)Nc1ccc(NC(=O)c2ccc(F)cc2Cl)cc1 (centres unmarked) | TNKS2 (Homo sapiens) | log10(IC50) | 4.28
CNC(=O)c1nc[nH]c1C(=O)Nc1ccc(NC(=O)c2ccc(F)cc2)cc1 | TNKS2 (Homo sapiens) | log10(IC50) | 3.23

Consider "CNC(=O)c1nc[nH]c1C(=O)Nc1ccc(NC(=O)c2cccc(Cl)c2Cl)cc1" . Its measured log10(IC50) is 1.30

Summary for this compound, CC(NC(=O)c1ncoc1C(=O)Nc1ccc(NC(=O)c2ccc(F)cc2Cl)cc1)c1ccccc1 (centres unmarked) : log10(IC50) is 3.85

###

tgt: TNKS1 (Homo sapiens)
experiment: Modified TNKS1 Assay 3 (BPS kit #80573, biotin-NAD+, 96 well)
Type: biochemical
measurement-conditions: human TNKS1, BPS kit #80573, 96 well
measurement-label: pIC50
Lab note: report pIC50 as minus log10 of the concentration in molar units, number only.

Below: 5 compounds and their reported pIC50.
compound | number
CN(C)CCCCCNC(=O)c1nc[nH]c1C(=O)Nc1ccc(NC(=O)c2ccc(F)cc2Cl)cc1 | 7.22
CC(C)c1nc(C(=O)Nc2ccc(NC(=O)c3ccc(F)cc3Cl)cc2)c(C(=O)NCCN2CCCCC2)[nH]1 | 6.34
O=C(Nc1ccc(NC(=O)c2nc[nH]c2C(=O)NCCN2CC[C@H](F)C2)cc1)c1ccc(F)cc1Cl | 6.54
O=C(Nc1ccc(NC(=O)c2nc[nH]c2C(=O)NCCCN2CCCC(O)C2)cc1)c1ccc(F)cc1Cl (stereo not shown) | 7.52
COc1cc(NC(=O)c2[nH]cnc2C(=O)NCCN2CCCCC2)ccc1NC(=O)c1ccccc1Cl | 7.40

Switching to the query record.
pIC50 value, target or system TNKS1 (Homo sapiens), for "O=C(Nc1ccc(NC(=O)c2nc[nH]c2C(=O)NCCN2CCOCC2)cc1)c1ccc(F)cc1Cl" : 6.70

###

tgt: UniProt O95271
Sequence (O95271 1-1327): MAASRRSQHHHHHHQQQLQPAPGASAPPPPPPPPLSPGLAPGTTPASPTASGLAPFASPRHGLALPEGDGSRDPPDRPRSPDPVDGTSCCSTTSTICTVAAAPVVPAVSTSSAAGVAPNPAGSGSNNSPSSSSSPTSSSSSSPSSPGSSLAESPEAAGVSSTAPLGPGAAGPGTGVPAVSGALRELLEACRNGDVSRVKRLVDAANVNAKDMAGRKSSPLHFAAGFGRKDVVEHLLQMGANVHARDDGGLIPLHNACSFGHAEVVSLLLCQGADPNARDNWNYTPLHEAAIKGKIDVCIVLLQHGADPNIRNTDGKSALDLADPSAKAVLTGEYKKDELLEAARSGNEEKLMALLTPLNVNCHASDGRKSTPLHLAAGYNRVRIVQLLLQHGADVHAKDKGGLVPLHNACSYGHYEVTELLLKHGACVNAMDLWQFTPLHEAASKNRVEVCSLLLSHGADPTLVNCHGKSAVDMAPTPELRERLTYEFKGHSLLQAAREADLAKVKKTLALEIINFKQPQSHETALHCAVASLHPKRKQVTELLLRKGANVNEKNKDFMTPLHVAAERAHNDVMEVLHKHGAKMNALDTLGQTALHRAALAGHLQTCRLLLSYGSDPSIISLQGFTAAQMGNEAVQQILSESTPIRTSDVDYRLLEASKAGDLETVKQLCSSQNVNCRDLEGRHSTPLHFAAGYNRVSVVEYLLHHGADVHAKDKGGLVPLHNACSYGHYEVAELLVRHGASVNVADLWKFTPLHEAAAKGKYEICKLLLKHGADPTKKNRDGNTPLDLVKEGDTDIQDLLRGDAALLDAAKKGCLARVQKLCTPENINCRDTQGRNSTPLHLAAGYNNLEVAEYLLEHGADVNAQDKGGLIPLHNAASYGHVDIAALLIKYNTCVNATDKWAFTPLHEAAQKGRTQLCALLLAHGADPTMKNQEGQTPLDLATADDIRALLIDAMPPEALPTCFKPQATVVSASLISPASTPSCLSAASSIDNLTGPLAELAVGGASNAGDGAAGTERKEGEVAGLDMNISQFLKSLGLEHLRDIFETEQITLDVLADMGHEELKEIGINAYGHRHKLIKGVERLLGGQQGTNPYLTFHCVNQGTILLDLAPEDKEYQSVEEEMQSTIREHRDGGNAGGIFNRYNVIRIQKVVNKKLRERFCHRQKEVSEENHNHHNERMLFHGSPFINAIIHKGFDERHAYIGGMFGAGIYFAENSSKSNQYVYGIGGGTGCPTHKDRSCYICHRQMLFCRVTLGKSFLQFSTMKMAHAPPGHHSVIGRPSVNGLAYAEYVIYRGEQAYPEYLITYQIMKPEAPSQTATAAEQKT
experiment: Modified TNKS1 Assay 3 (BPS kit #80573, biotin-NAD+, 96 well)
Format: biochemical
measurement-conditions: human TNKS1, BPS kit #80573, 96 well
Cut-off 100 nM on IC50: below means 1, at or above means -1.

compound | group
COc1cc(NC(=O)c2[nH]cnc2C(=O)NCCN2CCCCC2)ccc1NC(=O)c1ccc(F)cc1Cl [Example 97] | 1
CCN1CCC(CNC(=O)c2nc[nH]c2C(=O)Nc2ccc(NC(=O)c3ccc(F)cc3Cl)cc2)CC1 [Example 409] | 1
O=C(Nc1ccc(NC(=O)c2nc[nH]c2C(=O)NCCN2CCC[C@@H](O)C2)cc1)c1ccc(F)cc1Cl [Example 272] | 1
O=C(Nc1ccc(NC(=O)c2[nH]cnc2C(=O)NCC(F)(F)F)cc1)c1ccc(F)cc1Cl [Example 30] | -1
COC(=O)c1nc[nH]c1C(=O)Nc1ccc(NC(=O)c2ccc(F)cc2Cl)cc1 [Example 13] | 1
O=C(Nc1ccc(NC(=O)c2nc[nH]c2C(=O)NCC2CCCO2)cc1)c1ccc(F)cc1Cl (stereo not shown) [Example 237] | -1
CN1CCN(CCCNC(=O)c2nc[nH]c2C(=O)Nc2ccc(NC(=O)c3ccc(F)cc3Cl)cc2)CC1 [Example 392] | 1
O=C(Nc1ccc(NC(=O)c2nc[nH]c2C(=O)NC2CCOCC2)cc1)c1ccc(F)cc1Cl [Example 234] | -1

Attention now turns to another entry.
Query :: Bench note: check whether CN(C)CCNC(=O)c1nc[nH]c1C(=O)Nc1ccc(NC(=O)c2ccc(F)cc2Cl)nc1 [Example 109] shows IC50 below 100 nM
Result :: 1
